# Test system: E. coli TESEC Mtb Alr
# METHOD: growth (OD600 after 10 h); higher = more growth (less inhibition)
# CONDITION_CONTEXT: arabinose 10000000 nM; compound 0.1 mM; raw OD600 reference: median of DMSO wells 0.146, cell-free background 0.041
Structures can show the parent of a compound that is named as a salt.
Below, each of the molecules is paired with its reported growth value.

MOLECULE | growth
O=[N+]([O-])O[C@@H]1CO[C@H]2[C@@H]1OC[C@@H]2O [Isosorbide mononitrate] | 0.136
CC(CCc1ccccc1)NC(C)C(O)c1ccc(O)cc1 (stereo not given) | 0.144
COc1cccc(C2(O)CCCCC2CN(C)C)c1 (stereo not given) [Tramadol hydrochloride] | 0.135
CCNCC(O)c1cccc(O)c1 (stereo not given) [Etilefrine hydrochloride] | 0.134
COc1ccc(C(=O)N2CCCC2=O)cc1 | 0.167
